B1: ELF3 (parent)
chain: RLVYKFGKNSSGWKEEEVLQSRN

Variants of: B1
ASSAY_COMMENT: protein stability index of a GFP-peptide fusion (GPS, HEK-293T) (PSI 1-6); higher = more stable;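 further: lentivirally expressed fusions sorted by FACS into six bins by GFP to DsRed ratio, PSI derived from sequencing read proportions per bin multiplied by bin number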
REPORTED_CONDITIONS: c terminus: native
Bucketed by reported protein stability index, buckets being interval 1 = under 2, interval 2 = from 2 up to 3, interval 3 = 3 and over

INSERT INTO assay_data (variant_id, label) VALUES
  ('Q20V', 'interval 1'),
  ('E17C', 'interval 2'),
  ('E16F', 'interval 3'),
  ('Y4I', 'interval 2'),
  ('G12A', 'interval 2'),
  ('S21L', 'interval 3'),
  ('N23K', 'interval 3'),
  ('S11F', 'interval 1'),
  ('L2P', 'interval 2'),
  ('K8L', 'interval 1');

Exam item: assign "W13K" to the correct category.
interval 3

State the class of the variant shown: "V18Y"
interval 1

Quick check: band for "L19R"
interval 2

Quick check: band for "V3M"
interval 2

Record "Q20C" — which class?
interval 2
